Attribution: patent EP1025114B1

# Test system: Streptococcus pyogenes EES61
Quick list: MIC per entry.
Give your result in µg/mL as a bare value.

>  <molecule>
CC[C@H]1OC(=O)[C@H](C)[C@@H](O[C@H]2C[C@@](C)(OC)[C@@H](O)[C@H](C)O2)[C@H](C)[C@@H](O[C@@H]2O[C@H](C)C[C@H](N(C)C)[C@H]2O)[C@](C)(O)C[C@@H](C)C(=O)[C@H](C)[C@@H](O)[C@]1(C)O [Ery. A, Erythromycin A, reference compound]

>  <MIC / µg/mL>
0.05

$$$$
>  <molecule>
CCCN(C)[C@H]1C[C@@H](C)O[C@@H](O[C@@H]2[C@@H](C)C(=O)[C@@H](C)C(=O)O[C@H](CC)[C@@]3(C)OC(=O)N[C@@H]3[C@@H](C)C(=O)[C@H](C)C[C@@]2(C)OCC=Cc2cnc3ccccc3c2)[C@@H]1O [Example 16]

>  <MIC / µg/mL>
0.01

$$$$
>  <molecule>
CC[C@H]1OC(=O)[C@H](C)C(=O)[C@H](C)[C@@H](O[C@@H]2O[C@H](C)C[C@H](N(C)C3CC3)[C@H]2O)[C@](C)(OCC=Cc2cnc3ccccc3c2)C[C@@H](C)C(=O)[C@H](C)[C@H]2NC(=O)O[C@@]21C [Example 20]

>  <MIC / µg/mL>
0.1

$$$$
>  <molecule>
C=CCN(C)[C@H]1C[C@@H](C)O[C@@H](O[C@@H]2[C@@H](C)C(=O)[C@@H](C)C(=O)O[C@H](CC)[C@@]3(C)OC(=O)N[C@@H]3[C@@H](C)C(=O)[C@H](C)C[C@@]2(C)OCC=Cc2cnc3ccccc3c2)[C@@H]1O [Example 6]

>  <MIC / µg/mL>
0.02

$$$$
>  <molecule>
CC[C@H]1OC(=O)[C@H](C)C(=O)[C@H](C)[C@@H](O[C@@H]2O[C@H](C)C[C@H](N(C)CC=Cc3ccccc3)[C@H]2O)[C@](C)(OCC=Cc2cnc3ccccc3c2)C[C@@H](C)C(=O)[C@H](C)[C@H]2NC(=O)O[C@@]21C [Example 17]

>  <MIC / µg/mL>
0.2

$$$$

*Q* Fill in the blank: the reported MIC of CC[C@H]1OC(=O)[C@H](C)C(=O)[C@H](C)[C@@H](O[C@@H]2O[C@H](C)C[C@H](N(C)CC#N)[C@H]2O)[C@](C)(OCC=Cc2cnc3ccccc3c2)C[C@@H](C)C(=O)[C@H](C)[C@H]2NC(=O)O[C@@]21C [Example 9] is ____.
*A* 0.01

*Q* Follow-up entry: CC[C@H]1OC(=O)[C@H](C)C(=O)[C@H](C)[C@@H](O[C@@H]2O[C@H](C)C[C@H](N(C)C(C)=O)[C@H]2O)[C@](C)(OCC=Cc2cnc3ccccc3c2)C[C@@H](C)C(=O)[C@H](C)[C@H]2NC(=O)O[C@@]21C [Example 4]
*A* 0.39

*Q* Follow-up entry: CCOC(=O)CN(C)[C@H]1C[C@@H](C)O[C@@H](O[C@@H]2[C@@H](C)C(=O)[C@@H](C)C(=O)O[C@H](CC)[C@@]3(C)OC(=O)N[C@@H]3[C@@H](C)C(=O)[C@H](C)C[C@@]2(C)OCC=Cc2cnc3ccccc3c2)[C@@H]1O [Example 5]
*A* 0.39

---

Quick note: these are MIC numbers for system: Mycobacterium smegmatis ATCC 114
Give your result in µg/mL as a bare value.

>  <compound>
CC[C@H]1OC(=O)[C@H](C)C(=O)[C@H](C)[C@@H](O[C@@H]2O[C@H](C)C[C@H](N(C)CC#N)[C@H]2O)[C@](C)(OCC=Cc2cnc3ccccc3c2)C[C@@H](C)C(=O)[C@H](C)[C@H]2NC(=O)O[C@@]21C [Example 9]

>  <MIC (µg/mL)>
12.5

$$$$

Lab note: next compound to report on.
*Q* Fill in the blank: the reported MIC of CC[C@H]1OC(=O)[C@H](C)C(=O)[C@H](C)[C@@H](O[C@@H]2O[C@H](C)C[C@H](N(C)Cc3cccc(O)c3)[C@H]2O)[C@](C)(OCC=Cc2cnc3ccccc3c2)C[C@@H](C)C(=O)[C@H](C)[C@H]2NC(=O)O[C@@]21C [Example 22] is ____.
*A* 0.78

---

# System: Micrococcus luteus ATCC 9341
readout: MIC (µg/mL)
Give your result in µg/mL as a bare value.

Answered examples (2):
>  <given_smiles>
CC[C@H]1OC(=O)[C@H](C)C(=O)[C@H](C)[C@@H](O[C@@H]2O[C@H](C)C[C@H](N(C)C(C)=O)[C@H]2O)[C@](C)(OCC=Cc2cnc3ccccc3c2)C[C@@H](C)C(=O)[C@H](C)[C@H]2NC(=O)O[C@@]21C

>  <result_number>
0.39

$$$$
>  <given_smiles>
CCCN(C)[C@H]1C[C@@H](C)O[C@@H](O[C@@H]2[C@@H](C)C(=O)[C@@H](C)C(=O)O[C@H](CC)[C@@]3(C)OC(=O)N[C@@H]3[C@@H](C)C(=O)[C@H](C)C[C@@]2(C)OCC=Cc2cnc3ccccc3c2)[C@@H]1O

>  <result_number>
0.02

$$$$

Lab note: next compound to report on.
*Q* Fill in the blank: the reported MIC of `CC[C@H]1OC(=O)[C@H](C)C(=O)[C@H](C)[C@@H](O[C@@H]2O[C@H](C)C[C@H](N(C)Cc3cccnc3)[C@H]2O)[C@](C)(OCC=Cc2cnc3ccccc3c2)C[C@@H](C)C(=O)[C@H](C)[C@H]2NC(=O)O[C@@]21C` is ____.
*A* 0.05

---

Quick note: these are log10(MIC) numbers for system: Streptococcus pyogenes PIU 2548
The common logarithm of MIC in µg/mL is what is listed.

Answered examples (8):
>  <molecule>
CC[C@H]1OC(=O)[C@H](C)C(=O)[C@H](C)[C@@H](O[C@@H]2O[C@H](C)C[C@H](N(C)Cc3cccc(O)c3)[C@H]2O)[C@](C)(OCC=Cc2cnc3ccccc3c2)C[C@@H](C)C(=O)[C@H](C)[C@H]2NC(=O)O[C@@]21C

>  <log10(MIC)>
-1.00

$$$$
>  <molecule>
C#CCN(C)[C@H]1C[C@@H](C)O[C@@H](O[C@@H]2[C@@H](C)C(=O)[C@@H](C)C(=O)O[C@H](CC)[C@@]3(C)OC(=O)N[C@@H]3[C@@H](C)C(=O)[C@H](C)C[C@@]2(C)OCC=Cc2cnc3ccccc3c2)[C@@H]1O

>  <log10(MIC)>
-0.41

$$$$
>  <molecule>
CC[C@H]1OC(=O)[C@H](C)C(=O)[C@H](C)[C@@H](O[C@@H]2O[C@H](C)C[C@H](N(C)CC=Cc3ccccc3)[C@H]2O)[C@](C)(OCC=Cc2cnc3ccccc3c2)C[C@@H](C)C(=O)[C@H](C)[C@H]2NC(=O)O[C@@]21C

>  <log10(MIC)>
-0.41

$$$$
>  <molecule>
C=C(CN(C)[C@H]1C[C@@H](C)O[C@@H](O[C@@H]2[C@@H](C)C(=O)[C@@H](C)C(=O)O[C@H](CC)[C@@]3(C)OC(=O)N[C@@H]3[C@@H](C)C(=O)[C@H](C)C[C@@]2(C)OCC=Cc2cnc3ccccc3c2)[C@@H]1O)C(=O)OC

>  <log10(MIC)>
-0.41

$$$$
>  <molecule>
CC[C@H]1OC(=O)[C@H](C)[C@@H](O[C@H]2C[C@@](C)(OC)[C@@H](O)[C@H](C)O2)[C@H](C)[C@@H](O[C@@H]2O[C@H](C)C[C@H](N(C)C)[C@H]2O)[C@](C)(O)C[C@@H](C)C(=O)[C@H](C)[C@@H](O)[C@]1(C)O [Ery. A, Erythromycin A, reference compound]

>  <log10(MIC)>
0.79

$$$$
>  <molecule>
CC[C@H]1OC(=O)[C@H](C)C(=O)[C@H](C)[C@@H](O[C@@H]2O[C@H](C)C[C@H](NC)[C@H]2O)[C@](C)(OCC=Cc2cnc3ccccc3c2)C[C@@H](C)C(=O)[C@H](C)[C@H]2NC(=O)O[C@@]21C

>  <log10(MIC)>
-0.41

$$$$
>  <molecule>
C=C(C)CN(C)[C@H]1C[C@@H](C)O[C@@H](O[C@@H]2[C@@H](C)C(=O)[C@@H](C)C(=O)O[C@H](CC)[C@@]3(C)OC(=O)N[C@@H]3[C@@H](C)C(=O)[C@H](C)C[C@@]2(C)OCC=Cc2cnc3ccccc3c2)[C@@H]1O

>  <log10(MIC)>
-0.70

$$$$
>  <molecule>
CC[C@H]1OC(=O)[C@H](C)C(=O)[C@H](C)[C@@H](O[C@@H]2O[C@H](C)C[C@H](N(C)CCF)[C@H]2O)[C@](C)(OCC=Cc2cnc3ccccc3c2)C[C@@H](C)C(=O)[C@H](C)[C@H]2NC(=O)O[C@@]21C

>  <log10(MIC)>
-0.41

$$$$

*Q* Lab note: need log10(MIC) for `C=CCN(C)[C@H]1C[C@@H](C)O[C@@H](O[C@@H]2[C@@H](C)C(=O)[C@@H](C)C(=O)O[C@H](CC)[C@@]3(C)OC(=O)N[C@@H]3[C@@H](C)C(=O)[C@H](C)C[C@@]2(C)OCC=Cc2cnc3ccccc3c2)[C@@H]1O` on Streptococcus pyogenes PIU 2548, anyone have it?
*A* -0.70

*Q* Follow-up entry: CC[C@H]1OC(=O)[C@H](C)C(=O)[C@H](C)[C@@H](O[C@@H]2O[C@H](C)C[C@H](N(C)C3CC3)[C@H]2O)[C@](C)(OCC=Cc2cnc3ccccc3c2)C[C@@H](C)C(=O)[C@H](C)[C@H]2NC(=O)O[C@@]21C [Example 20]
*A* -0.41

*Q* Follow-up entry: `CC[C@H]1OC(=O)[C@H](C)C(=O)[C@H](C)[C@@H](O[C@@H]2O[C@H](C)C[C@H](N(C)C(C)=O)[C@H]2O)[C@](C)(OCC=Cc2cnc3ccccc3c2)C[C@@H](C)C(=O)[C@H](C)[C@H]2NC(=O)O[C@@]21C`
*A* 0.19

*Q* Follow-up entry: CC[C@H]1OC(=O)[C@H](C)C(=O)[C@H](C)[C@@H](O[C@@H]2O[C@H](C)C[C@H](N(C)C3CC3)[C@H]2O)[C@](C)(OCC=Cc2cnc3ccccc3c2)C[C@@H](C)C(=O)[C@H](C)[C@H]2NC(=O)O[C@@]21C [Example 13]
*A* -0.41

*Q* Follow-up entry: `CCOC(=O)CN(C)[C@H]1C[C@@H](C)O[C@@H](O[C@@H]2[C@@H](C)C(=O)[C@@H](C)C(=O)O[C@H](CC)[C@@]3(C)OC(=O)N[C@@H]3[C@@H](C)C(=O)[C@H](C)C[C@@]2(C)OCC=Cc2cnc3ccccc3c2)[C@@H]1O`
*A* 0.79

*Q* Follow-up entry: `CC[C@H]1OC(=O)[C@H](C)C(=O)[C@H](C)[C@@H](O[C@@H]2O[C@H](C)C[C@H](N(C)CC3CC3)[C@H]2O)[C@](C)(OCC=Cc2cnc3ccccc3c2)C[C@@H](C)C(=O)[C@H](C)[C@H]2NC(=O)O[C@@]21C`
*A* -1.00

*Q* Follow-up entry: `CC[C@H]1OC(=O)[C@H](C)C(=O)[C@H](C)[C@@H](O[C@@H]2O[C@H](C)C[C@H](NC)[C@H]2OC(C)=O)[C@](C)(OCC=Cc2cnc3ccccc3c2)C[C@@H](C)C(=O)[C@H](C)[C@H]2NC(=O)O[C@@]21C`
*A* -0.41
